As shown below, each of these binders has a reported IC50, LTβR NF-κB luciferase reporter, free LIGHT value.
target.entity: T1, His-human LIGHT (human)
T1 chain: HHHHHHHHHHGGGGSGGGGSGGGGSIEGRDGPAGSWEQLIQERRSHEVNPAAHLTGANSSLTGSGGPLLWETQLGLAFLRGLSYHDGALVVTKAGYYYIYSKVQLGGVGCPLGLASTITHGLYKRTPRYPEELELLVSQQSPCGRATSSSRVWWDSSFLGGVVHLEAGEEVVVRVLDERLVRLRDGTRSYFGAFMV
test.details: cell-based or functional assay
measured.property: IC50, LTβR NF-κB luciferase reporter, free LIGHT

binder | obs.value
hum_LT-m37-2 (antibody, human IgG4, V domains shown, humanized from LT-m37) VH: QVQLVQSGAEVKKPGASVKVSCKASGYSFTGYFINWVRQAPGQGLEWIGRIYPYNVNTFYNQNFKGRATLTADKSTSTAYMELSSLRSEDTAVYYCGRGTHYYGSSGAMDYWGQGTLVTVSS VL: EIVLTQSPATLSVSPGERATLSCKASQNVGTAVAWYQQKPGQSPRLLIYSASNRYTGIPARFSGSGSGTEFTLTISSLQSEDFAVYFCQQYSSYPYTFGGGTKVEIK | 0.293 µg/mL
hum_LT-m37-3 (antibody, human IgG4, V domains shown, humanized from LT-m37) VH: QVQLVQSGAEVKKPGASVKVSCKASGYSFTGYFINWVRQAPGQGLEWIGRIYPYNVNTFYNQNFKGRATMTADKSTSTAYMELSSLRSEDTAVYYCGRGTHYYGSSGAMDYWGQGTLVTVSS VL: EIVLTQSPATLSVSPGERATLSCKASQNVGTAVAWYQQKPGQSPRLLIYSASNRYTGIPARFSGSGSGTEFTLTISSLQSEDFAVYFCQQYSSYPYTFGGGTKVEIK | 0.399 µg/mL
hum_LT-m37-7 (antibody, human IgG4, V domains shown, humanized from LT-m37) VH: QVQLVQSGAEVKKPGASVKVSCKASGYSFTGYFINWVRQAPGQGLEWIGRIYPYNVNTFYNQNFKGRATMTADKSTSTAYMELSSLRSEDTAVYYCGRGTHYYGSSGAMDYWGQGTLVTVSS VL: EIVMTQSPATLSVSPGERATLSCKASQNVGTAVAWYQQKPGQSPRLLIYSASNRYTGIPARFSGSGSGTEFTLTISSLQSEDFAVYFCQQYSSYPYTFGGGTKVEIK | 0.135 µg/mL
hum_LT-m37-9 (antibody, human IgG4, V domains shown, humanized from LT-m37) VH: QVQLVQSGAEVKKPGASVKVSCKASGYSFTGYFINWVRQAPGQSLEWIGRIYPYNVNTFYNQNFKGRATLTADKSTSTAYMELSSLRSEDTAVYYCGRGTHYYGSSGAMDYWGQGTLVTVSS VL: EIVLTQSPATLSVSPGERATLSCKASQNVGTAVAWYQQKPGQSPRLLIYSASNRYTGIPARFSGSGSGTEFTLTISSLQSEDFAVYYCQQYSSYPYTFGGGTKVEIK | 0.227 µg/mL
hum_LT-m37-4 (antibody, human IgG4, V domains shown, humanized from LT-m37) VH: QVQLVQSGAEVKKPGASVKVSCKASGYSFTGYFINWVRQAPGQGLEWIGRIYPYNVNTFYNQNFKGRVTMTADKSTSTAYMELSSLRSEDTAVYYCGRGTHYYGSSGAMDYWGQGTLVTVSS VL: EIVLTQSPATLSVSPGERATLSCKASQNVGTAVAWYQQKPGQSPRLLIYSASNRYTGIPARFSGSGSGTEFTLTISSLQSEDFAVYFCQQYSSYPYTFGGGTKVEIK | 0.129 µg/mL
hum_LT-m37-8 (antibody, human IgG4, V domains shown, humanized from LT-m37) VH: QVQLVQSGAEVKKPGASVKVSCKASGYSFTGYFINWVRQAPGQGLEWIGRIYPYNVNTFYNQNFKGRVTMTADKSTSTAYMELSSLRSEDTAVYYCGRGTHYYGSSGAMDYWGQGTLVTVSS VL: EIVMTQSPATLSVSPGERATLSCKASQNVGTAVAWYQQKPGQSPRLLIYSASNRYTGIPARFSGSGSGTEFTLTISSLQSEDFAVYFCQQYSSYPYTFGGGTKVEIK | 0.17 µg/mL
hum_LT-m37-12 (antibody, human IgG4, V domains shown, humanized from LT-m37) VH: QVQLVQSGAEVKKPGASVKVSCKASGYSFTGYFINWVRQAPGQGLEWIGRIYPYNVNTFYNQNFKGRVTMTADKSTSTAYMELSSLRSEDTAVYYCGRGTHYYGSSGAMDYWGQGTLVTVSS VL: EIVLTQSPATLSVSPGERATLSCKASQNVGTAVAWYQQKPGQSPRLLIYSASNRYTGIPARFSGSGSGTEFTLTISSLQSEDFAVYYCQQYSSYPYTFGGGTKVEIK | 0.144 µg/mL
hum_LT-m37-10 (antibody, human IgG4, V domains shown, humanized from LT-m37) VH: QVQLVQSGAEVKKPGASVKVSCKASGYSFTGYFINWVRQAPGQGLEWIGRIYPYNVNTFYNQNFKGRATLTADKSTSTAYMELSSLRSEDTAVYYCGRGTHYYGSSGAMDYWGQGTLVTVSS VL: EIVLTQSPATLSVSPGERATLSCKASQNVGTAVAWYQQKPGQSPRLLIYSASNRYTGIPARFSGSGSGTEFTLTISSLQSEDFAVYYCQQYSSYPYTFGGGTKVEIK | 0.153 µg/mL
hum_LT-m37-11 (antibody, human IgG4, V domains shown, humanized from LT-m37) VH: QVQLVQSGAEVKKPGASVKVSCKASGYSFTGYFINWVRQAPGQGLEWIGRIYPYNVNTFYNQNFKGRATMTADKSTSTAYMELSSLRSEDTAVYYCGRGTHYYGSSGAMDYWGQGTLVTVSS VL: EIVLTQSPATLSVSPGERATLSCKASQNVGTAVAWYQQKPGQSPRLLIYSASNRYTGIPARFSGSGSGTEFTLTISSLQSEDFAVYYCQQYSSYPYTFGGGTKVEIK | 0.203 µg/mL
hum_LT-m37-6 (antibody, human IgG4, V domains shown, humanized from LT-m37) VH: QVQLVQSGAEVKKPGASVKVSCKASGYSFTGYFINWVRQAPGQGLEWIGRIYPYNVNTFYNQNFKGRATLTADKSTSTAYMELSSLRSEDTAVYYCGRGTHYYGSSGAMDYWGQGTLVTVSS VL: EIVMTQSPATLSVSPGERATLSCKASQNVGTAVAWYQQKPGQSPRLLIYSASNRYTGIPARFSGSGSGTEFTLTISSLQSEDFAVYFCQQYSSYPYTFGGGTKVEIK | 0.224 µg/mL
hum_LT-m37-5 (antibody, human IgG4, V domains shown, humanized from LT-m37) VH: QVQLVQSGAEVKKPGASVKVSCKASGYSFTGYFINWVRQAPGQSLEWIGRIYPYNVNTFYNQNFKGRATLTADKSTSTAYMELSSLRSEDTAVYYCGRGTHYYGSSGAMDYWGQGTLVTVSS VL: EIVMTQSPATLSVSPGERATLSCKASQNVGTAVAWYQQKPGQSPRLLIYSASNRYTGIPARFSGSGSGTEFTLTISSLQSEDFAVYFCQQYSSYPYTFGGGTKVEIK | 0.16 µg/mL
